Tested on: Es-2
Experiment: Primary qHTS to identify gynecologic anti-cancer compounds using libraries of approved drugs and bioactive compounds (AID 1345084); also: % is scaled to controls: 0 for no effect and ±100 for the full control effect; nearly all actives have a fitted effect of over 55% in size
Conditions: Gynecologic cancer cell panel viability, ATPlite luminescence, 48 h; series mostly up to 57.5 µM
Inconclusive results are not listed. Calls of active or inactive are those of the source. Calls follow the shape of the dose curve; as a rule, active = well fitted cell-killing curve with a large enough effect; inconclusive = small, poorly fitted or top-dose-only effect, or effect the other way; inactive = flat fitted curve, though single readings scatter.
parameter: activity change, negative = cytotoxicity

Known results for compounds:
1) CC(/C=C/C1(O)C2(C)COC1(C)CC(=O)C2)O[C@@H]1O[C@H](CO)[C@@H](O)[C@H](O)[C@H]1O (stereo not given in full) ... inactive
2) CC(=O)O[C@@H]1[C@H](O[C@@H]2O[C@H](CO)[C@@H](O)[C@H](O)[C@H]2O)[C@@H](O[C@@H]2O[C@@H](C)[C@H](O)[C@@H](O[C@@H]3O[C@H](CO)[C@@H](O)[C@H](O)[C@H]3O)[C@H]2O)[C@H](OC(=O)C23CCC4(C)C(=CCC5C6(C)CC(O)C(O[C@@H]7O[C@H](C(=O)O)[C@@H](O)[C@H](O)[C@H]7O)C(C)(C(=O)O)C6CCC54C)C2CC(C)(C)CC3O)O[C@@H]1C (stereo not given in full) ... 1.96% [at 6.55 µM] (inactive)
3) Cc1nnc(C(C)C)n1C1CC2CCC(C1)N2CCC(NC(=O)C1CCC(F)(F)CC1)c1ccccc1 (stereo not given) ... inactive
4) C[C@H]1CN(C[C@H](Cc2ccccc2)C(=O)NCC(=O)O)CC[C@@]1(C)c1cccc(O)c1 ... inactive

Next up:
Q: Query activity change, negative = cytotoxicity for "CC(=O)O[C@@H]1[C@H]2[C@@H](OC(=O)c3ccccc3)[C@@H](C)C[C@]2(O)[C@H](OC(C)=O)[C@@]2(C)[C@@H]3CC(C)(C)C(=O)[C@]3(OC(C)=O)C[C@@]12C"
Ans: inactive

* * *

Biological target: Glutathione peroxidase 1 (Homo sapiens) (UniProt P07203)
Sequence (P07203 whole entry, looked up): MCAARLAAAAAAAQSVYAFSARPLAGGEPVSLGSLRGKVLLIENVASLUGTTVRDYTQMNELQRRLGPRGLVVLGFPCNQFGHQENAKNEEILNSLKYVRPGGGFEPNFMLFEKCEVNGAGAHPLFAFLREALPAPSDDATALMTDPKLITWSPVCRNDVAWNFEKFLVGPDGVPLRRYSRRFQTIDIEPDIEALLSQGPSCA
Test: Primary qHTS Assay for Inhibitors of Recombinant Selenoprotein Glutathione Peroxidase 1 (GPX1) (AID 1845191); also: nearly all actives have a fitted effect of over 65% in size
Conditions: recombinant GPX1, GR-coupled NADPH fluorescence, 15 min; series mostly up to 48.8 µM
Records with an inconclusive call do not appear. Activity calls are given as the source filed them. The call rests on the fitted dose curve; in most records, active means well fitted inhibition curve with a large enough effect; inconclusive means small, poorly fitted or top-dose-only effect; inactive means flat fitted curve, though single readings scatter.
parameter: outcome

Known results for compounds:
1. CCC(C)C(=O)O[C@@H]1[C@@H](O)[C@@H](O[C@H]2O[C@H](CO)[C@@H](O)[C@H](O)[C@H]2O)O[C@H](CO)[C@H]1O (stereo not given in full) ... inactive
2. Cc1cc(/C=C/c2ccc3cc(N(C)C)ccc3[n+]2C)c(C)n1-c1ccccc1 ... inactive
3. COc1c(C)c2c(c(O)c1C/C=C(\C)CC/C=C(\C)CCC(=O)O)C(=O)OC2 ... inactive
4. CCOc1ccc2c(c1)C(C)=CC(C)(C)N2 ... inactive

Next up:
Q: Query outcome for C=C1CCC2(OC1)OC1CC3C4CC=C5CC(O)CC(O[C@@H]6OC[C@@H](O)[C@H](O)[C@H]6O)C5(C)C4CCC3(C)C1(O)C2C (stereo not given in full)
Ans: inactive

* * *

Target: Luciferin 4-monooxygenase (Photinus pyralis) (UniProt P08659)
Assay: Primary firefly luciferase (FLuc) qHTS assay for identification of artifact compounds. (AID 1845220); also: nearly all actives have a fitted effect of over 60% in size;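 as to activity change, negative = inhibition: plate controls were DMSO vehicle for no effect and no enzyme for full effect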
Conditions: purified firefly luciferase, luminescence, 5 min; series mostly up to 54.1 µM
Activity calls are given as the source filed them. Calls come from the whole dose curve; as a rule, active = well fitted inhibition curve with a large enough effect; inconclusive = small, poorly fitted or top-dose-only effect; inactive = flat fitted curve, though single readings scatter.
parameter: activity change, negative = inhibition

Known results for compounds:
1. CC1=CC(=O)C[C@H]2[C@@H]1CC[C@@H](C)[C@]21CO[C@H](c2ccoc2)C1=O ... inactive
2. COc1cc(/C=C/CO)ccc1O[C@@H]1O[C@H](CO)[C@@H](O)[C@H](O)[C@H]1O ... inactive
3. CN(C)C/C=C/C(=O)Nc1ccc(C(=O)Nc2cccc(Nc3ncc(Cl)c(-c4c[nH]c5ccccc45)n3)c2)cc1 ... inactive
4. CC(C)C1=CC2=CCC3[C@](C)(CCC[C@@]3(C)C(=O)O)C2CC1O (some centres undefined) ... inactive
5. C[C@@H]1CC[C@]2(C(=O)O)CC[C@]3(C(=O)O)C(=CCC4[C@@]5(C)CC[C@H](O[C@@H]6O[C@@H](C)[C@H](O[C@@H]7O[C@H](CO)[C@@H](O)[C@H](O)[C@H]7O)[C@@H](O)[C@H]6O)C(C)(C)C5CC[C@]43C)C2[C@H]1C (some centres undefined) ... inactive
6. O=C(c1ccc(NS(=O)(=O)c2cccc3cccnc23)cc1)N1CCN(CC2CC2)CC1 ... inactive

Q: Query activity change, negative = inhibition for COC12CC3C(C(C)C1=CC(=O)O2)C(O)C(OC(C)=O)C1C(C)(C)C(OC(C)=O)CCC31C (centres undefined)
Ans: inactive

Q: Query activity change, negative = inhibition for "CCC[C@@H]1C[C@@H](C(=O)N[C@@H]([C@H]2O[C@H](SC)[C@H](OP(=O)(O)O)[C@@H](O)[C@H]2O)[C@H](C)Cl)N(C)C1"
Ans: inactive

Q: Query activity change, negative = inhibition for "CC(/C=C/[C@]1(O)[C@@]2(C)CO[C@@]1(C)C[C@@H](O)C2)=C\C(=O)O[C@@H]1O[C@H](CO)[C@@H](O)[C@H](O)[C@H]1O"
Ans: inactive

Q: Query activity change, negative = inhibition for CC(C)(O)c1ccc2c(c1)C(O)CC1C(C)(C(=O)O)CCCC21C (centres undefined)
Ans: inactive
